Data provenance: the supplement of paper PMC9233669

tested on: biotinyl-Val-oxazolone; experiment: self-aminoacylation, catalytic enhancement (BVO) (fold over background); higher = more active; k-Seq, kA / k0A0; sequences stand for … in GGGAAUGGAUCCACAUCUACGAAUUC…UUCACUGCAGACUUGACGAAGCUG
Variants at the floor of the assay were thinned out.
Binary classification by self-aminoacylation, with 1 as an inclusive lower bound for met; all other cases are not met.

Problem: Reported self-aminoacylation reaches at least 1 for AGUCACCUAGGUCAUCGCGUG [Fam2.2 aminoacylation ribozyme variant] ?
Result: met

Problem: Kindly determine if self-aminoacylation recorded for AUUACCCUGGUGAUGGAGUGA [Fam2.1 aminoacylation ribozyme variant] is above or exactly 1.
Result: met

Problem: Does the sequence AUUCACCUAGGUCUUCGGCUG [Fam2.2 aminoacylation ribozyme variant] have recorded self-aminoacylation that is 1 or more?
Result: met

Problem: Check if self-aminoacylation >= 1 (inclusive). Item: AUUACCCUGCUCAUUGAGUGA [Fam2.1 aminoacylation ribozyme variant]
Result: met

Problem: Form field: self-aminoacylation at least 1? Entry: ACUACCCUGGUCAUCGAGCGA [Fam2.1 aminoacylation ribozyme variant]
Result: met

Problem: Answer whether self-aminoacylation of CCACAAUUCAAGCACUCGGUC [Fam1B.1 aminoacylation ribozyme variant] is greater than or equal to 1.
Result: met

Problem: Kindly determine if self-aminoacylation recorded for AAUAUUGCUAAUAGUCGCAAG [Fam3.1 aminoacylation ribozyme variant] is above or exactly 1.
Result: met

Problem: Kindly determine if self-aminoacylation recorded for UAGUUUACUAAUAGUCGCAAG [Fam3.1 aminoacylation ribozyme variant] is above or exactly 1.
Result: met

Problem: Hi, just wondering whether AUUACCCUAGUCAUCGAGUCA [Fam2.1 aminoacylation ribozyme variant] shows self-aminoacylation of 1 or higher.
Result: not met

Problem: Record CUACACUUCAAGCAGUCGGUC [Fam1B.1 aminoacylation ribozyme variant] ; criterion: self-aminoacylation no lower than 1. Met?
Result: not met

Problem: // inclusive: self-aminoacylation at least 1? input: AAGUUUGCUAUUAGUCGUAAG [Fam3.1 aminoacylation ribozyme variant]
Result: not met

Problem: Please indicate if the recorded self-aminoacylation for CUACUCAAAACAAUCGGUCUG [Fam1A.1 aminoacylation ribozyme variant] meets or exceeds 1.
Result: not met

Problem: Exam item: decide whether the reported self-aminoacylation for AGUCACCUAGGUCAUCGGGUA [Fam2.2 aminoacylation ribozyme variant] is at least 1.
Result: met

Problem: Has CCACACGUCAAGCAAACGGUC [Fam1B.1 aminoacylation ribozyme variant] a recorded self-aminoacylation greater than or equal to 1?
Result: met

Problem: Quick check, self-aminoacylation >= 1? AAGUUUGCUAAUCGUGGCAAG [Fam3.1 aminoacylation ribozyme variant]
Result: not met

Problem: Is it the case that AUUACCCUGGUCAAAGAGUGA [Fam2.1 aminoacylation ribozyme variant] has self-aminoacylation reaching or exceeding 1?
Result: met

Problem: Answer whether self-aminoacylation of AUCCACAUAGGUCAUCGGGUG [Fam2.2 aminoacylation ribozyme variant] is greater than or equal to 1.
Result: met

Problem: Decide: self-aminoacylation of ACUACCCUGGGCAUCGAGUGA [Fam2.1 aminoacylation ribozyme variant] >= 1?
Result: met

Problem: Does self-aminoacylation meet or surpass 1 for AUUAACUUGGUCAUCGAGUGA [Fam2.1 aminoacylation ribozyme variant] ?
Result: met

Problem: Is the recorded value of self-aminoacylation equal to or greater than 1 for this sequence? CCACACGUGAAGCAAUCGGUC [Fam1B.1 aminoacylation ribozyme variant]
Result: met

Problem: Answer whether self-aminoacylation of CGACUUCAAACAAUCGGGCUG [Fam1A.1 aminoacylation ribozyme variant] is greater than or equal to 1.
Result: met

Problem: Confirm if self-aminoacylation reported for the sequence UUUCACCUAGGCCAUCGGGUG [Fam2.2 aminoacylation ribozyme variant] is 1 or above.
Result: met

Problem: Evaluate AUUCACCUACGUCAUCGGGUC [Fam2.2 aminoacylation ribozyme variant] : self-aminoacylation at minimum 1?
Result: met

Problem: Tell me whether self-aminoacylation is at least 1 here: AUUCACCCAGGUAAUCGGGUG [Fam2.2 aminoacylation ribozyme variant]
Result: met

Problem: Hi team, for CCACACUACAAGCAAUCGUUC [Fam1B.1 aminoacylation ribozyme variant] , is the recorded self-aminoacylation at or above 1?
Result: not met

Problem: Is it the case that AUUCACCUAGGUCAACGGGUC [Fam2.2 aminoacylation ribozyme variant] has self-aminoacylation reaching or exceeding 1?
Result: met

Problem: State whether the measured self-aminoacylation reaches 1, counting equality as reaching it, for CUACUUCACAAAAUCGGUCUG [Fam1A.1 aminoacylation ribozyme variant]
Result: not met

Problem: Entry AUUACCCUGGUCAUCAAAUGA [Fam2.1 aminoacylation ribozyme variant] : is its self-aminoacylation no less than 1?
Result: not met

Problem: Evaluate CUACUUCAAACAGUCGCUCUG [Fam1A.1 aminoacylation ribozyme variant] : self-aminoacylation at minimum 1?
Result: met

Problem: Record UGACUUCAAACAAUCGGUCUG [Fam1A.1 aminoacylation ribozyme variant] ; criterion: self-aminoacylation no lower than 1. Met?
Result: met

Problem: # check: self-aminoacylation of AUUACGCGGGUCAUCGAGUGA [Fam2.1 aminoacylation ribozyme variant] is greater than or equal to 1
Result: met

Problem: Please tell me: is the sequence AUUCAGCCAGGUCAUCGGGUG [Fam2.2 aminoacylation ribozyme variant] at or over 1 in terms of self-aminoacylation?
Result: met

Problem: Does AUUCACCUAGCUCAUUGGGUG [Fam2.2 aminoacylation ribozyme variant] have a reported self-aminoacylation of at least 1?
Result: met
